Data credit: the supplement of paper PMC3334620

Target: Ecm22 (UniProt Q05958)
Sequence: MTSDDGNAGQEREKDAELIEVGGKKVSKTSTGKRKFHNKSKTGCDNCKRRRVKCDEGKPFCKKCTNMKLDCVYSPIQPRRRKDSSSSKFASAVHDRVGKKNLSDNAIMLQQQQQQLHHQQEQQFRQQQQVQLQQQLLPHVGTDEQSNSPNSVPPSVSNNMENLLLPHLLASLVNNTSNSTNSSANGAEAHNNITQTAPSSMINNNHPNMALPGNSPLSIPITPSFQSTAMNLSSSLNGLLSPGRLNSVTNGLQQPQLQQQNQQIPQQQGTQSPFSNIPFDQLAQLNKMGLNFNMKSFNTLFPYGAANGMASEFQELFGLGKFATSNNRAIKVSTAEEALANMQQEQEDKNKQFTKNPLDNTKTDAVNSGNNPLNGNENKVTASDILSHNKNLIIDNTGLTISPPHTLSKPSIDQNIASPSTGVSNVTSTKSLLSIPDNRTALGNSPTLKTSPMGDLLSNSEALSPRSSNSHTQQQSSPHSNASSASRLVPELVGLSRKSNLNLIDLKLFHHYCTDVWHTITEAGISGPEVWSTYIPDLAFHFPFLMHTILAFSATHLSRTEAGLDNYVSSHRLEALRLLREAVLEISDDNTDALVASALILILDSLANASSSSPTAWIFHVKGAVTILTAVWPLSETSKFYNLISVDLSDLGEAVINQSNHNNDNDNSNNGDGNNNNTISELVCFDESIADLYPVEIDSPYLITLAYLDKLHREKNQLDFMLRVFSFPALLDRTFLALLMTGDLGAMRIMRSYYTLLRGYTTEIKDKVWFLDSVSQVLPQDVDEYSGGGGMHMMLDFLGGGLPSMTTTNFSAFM
Assay: PBM E-score (8-mer binding enrichment) (E-score (-0.5 to 0.5)); higher = stronger / more preferred TF binding
Conditions: protein concentration: 200 nM; construct: GST-full length
The full ranking holds about 33,000 sequences; the median of “E-score (-0.5 to 0.5)” is about -0.041, and the highest 2% start at about 0.37. This is one part of a sample in which the highest values are shown more often than they occur.

>  <residues>
ATCGTTAA

>  <system>
Ecm22 (UniProt Q05958)

>  <PBM E-score>
0.403

$$$$
>  <residues>
GGCGTTAA

>  <system>
Ecm22 (UniProt Q05958)

>  <PBM E-score>
-0.0419

$$$$
>  <residues>
CACGTTAA

>  <system>
Ecm22 (UniProt Q05958)

>  <PBM E-score>
0.00208

$$$$
>  <residues>
GTCGTTAA

>  <system>
Ecm22 (UniProt Q05958)

>  <PBM E-score>
0.427

$$$$
>  <residues>
ACGCCCAC

>  <system>
Ecm22 (UniProt Q05958)

>  <PBM E-score>
-0.181

$$$$
>  <residues>
CTCGTTAA

>  <system>
Ecm22 (UniProt Q05958)

>  <PBM E-score>
0.437

$$$$
>  <residues>
CCCGTTAA

>  <system>
Ecm22 (UniProt Q05958)

>  <PBM E-score>
0.256

$$$$
>  <residues>
GGCCGACC

>  <system>
Ecm22 (UniProt Q05958)

>  <PBM E-score>
-0.224

$$$$
>  <residues>
CCAGTTGC

>  <system>
Ecm22 (UniProt Q05958)

>  <PBM E-score>
-0.196

$$$$
>  <residues>
CCCTTCTC

>  <system>
Ecm22 (UniProt Q05958)

>  <PBM E-score>
-0.218

$$$$
>  <residues>
ACAGTAAC

>  <system>
Ecm22 (UniProt Q05958)

>  <PBM E-score>
0.00997

$$$$
>  <residues>
GAGAACGA

>  <system>
Ecm22 (UniProt Q05958)

>  <PBM E-score>
0.422

$$$$
>  <residues>
CGTGTTCA

>  <system>
Ecm22 (UniProt Q05958)

>  <PBM E-score>
0.0358

$$$$
>  <residues>
CACGTTAC

>  <system>
Ecm22 (UniProt Q05958)

>  <PBM E-score>
-0.046

$$$$
>  <residues>
CGCGTTAC

>  <system>
Ecm22 (UniProt Q05958)

>  <PBM E-score>
0.159

$$$$
>  <residues>
ACCCAGCG

>  <system>
Ecm22 (UniProt Q05958)

>  <PBM E-score>
-0.184

$$$$
>  <residues>
CTTCTAAA

>  <system>
Ecm22 (UniProt Q05958)

>  <PBM E-score>
-0.0244

$$$$
>  <residues>
CATATCCA

>  <system>
Ecm22 (UniProt Q05958)

>  <PBM E-score>
-0.0799

$$$$
>  <residues>
GACTTAGC

>  <system>
Ecm22 (UniProt Q05958)

>  <PBM E-score>
-0.147

$$$$
>  <residues>
GTTAGACA

>  <system>
Ecm22 (UniProt Q05958)

>  <PBM E-score>
-0.137

$$$$
>  <residues>
AGGACCCT

>  <system>
Ecm22 (UniProt Q05958)

>  <PBM E-score>
-0.235

$$$$
>  <residues>
CTCGTTAC

>  <system>
Ecm22 (UniProt Q05958)

>  <PBM E-score>
0.371

$$$$
